Reference for the values: the supplement of paper PMC9170038

Test system: MS2 coat protein
Protocol Notes: apparent KD of MS2 coat protein, switch OFF state (with FMN for OFF switches, without FMN for ON switches); designed switch direction (-1 OFF switch, 1 ON switch): -1; higher = weaker reporter binding
Condition Parameters: FMN input: 0 or 200 uM; Eterna round: R93 (includes R88 designs)
Threshold check on apparent KD of MS2 coat protein: at or above 50 nM gives MET, strictly below gives NOT MET.

Construct Sequence | Qualitative Label
AAAAAACAUGAGGAUCACCCAUGUAAGGAUAUGUAAAAUAAAAGAAAAAUAAAGAAAAGCAGAAGGUACAUGGA [JL wbt mod 15] | MET
AAAAGGAUAGGAUAUACAUGAGGAUCACCCAUGUGAAAAAAUAAAAAAAAAAAAAAAAGUAGAAGGGUCAAAAA [LROPPY Exclusion 3 - v05_deltaG=3.6] | MET
AAAAAGUCAGGAUAUAUCAAAAAAAAAGAAAAAAAAAAAAGAUAGAAGGGACAUGAGGAUCACCCAUGUAAAAA [water's exclusion 4 last] | NOT MET
AAAAAGUAAGGAUAUAGCAAAGGUCACGAAAGUGACAAAGGCUAGAAGGUACAUGAGGAUCACCCAUGUCCAAA [Fiskers Exclusion 4 D2 63% 3] | NOT MET
AGCUAGUCAGGAUAUACAAAAAUGACAGAAGACGUAAGGGAACAUGAGGAUCACCCAUGUAGAAGGGACUAGCA [Diamond 43] | MET
AAAAAGUCAGGAUAUUCGGAAGGGAAAGCGCAAACCCAACCGAAGAAGGGACAUGAGGAUCACCCAUGUGGAAA [Ecls4-III 65% - Late G segment 1] | MET
GAUCCACAUGAGGAUCACCCAUGUGAGGAUAUCGUGCAGAAAAAAAAAAAAAACUGCACGAGAAGGCACAUGGG | NOT MET
AAAAAGUGAGGAUAUACGCUGAAGAGUAGACACAACCAGGCGUAGAAGGCACAUGAGGAUCACCCAUGUCCAAA [Ex4 Malc#10] | NOT MET
AAGGAGUGAGGAUAUCGGAAAGGACACGAAAGUGACAAAGACGAGAAGGCACAUGAGGAUCACCCAUGUAAAAA [milkweed 22] | NOT MET
GGUUGAUGAGGAUAUACAUGAGGAUCACCCAUGUGAGAGAAAAAAGUGAGAAAGAAAAGUAGAAGGCAUUGACG [salish99-ex3-60] | MET
AAAAUGUGAGGAUAUCCGAAGGCGUCUGAUAGACGAGGCUAGGAGAAGGCACAUGAGGAUCACCCAUGUAAAAA [Banishment 11 - Jieux - Exclusion 4] | MET
AACUAACAUGAGGAUCACCCAUGUCAGGAUAUGCAUCGAUCGAUCGAUCGAUCGAUCAGCAGAAGGGACAAAAA [Amethyst 92] | NOT MET
AAGAAAGAAGGAUAUACAAGGAAGAAAGAAAAGAAAAGAAAACAUGAGGAUCACCCAUGUAGAAGGUCUUAGAA [EteRNA is fun!] | NOT MET

----------
Tested on: MS2 coat protein
Protocol Notes: apparent KD of MS2 coat protein; higher = weaker reporter binding
Condition Parameters: Eterna round: R101; input ligand: none
Readout Name: apparent KD of MS2 coat protein (nM)

Construct Sequence | Readout Name | Uom | Data Value
UUAUUUUUACAGAAGGUUUAAUAAUAUAUAAGAGAAGGAUAUGUAACAUGAGGAUCACCCAUGUUUCACCCAUAUGAGGAUCAU [Astosinvert#10] (puzzle (switch architecture): Inverted Exclusion NG 1) | apparent KD of MS2 coat protein | nM | 8.28
ACAGGUCGUGAGAAGGCGUGUGGCACCGUCGAAAGACGGUGCAAUUAAGAUCUUCGAGGAUCACCCGAGGAUAUCACGACCUGA [#SharedSequence - IExNG2: 18] (puzzle (switch architecture): Inverted Exclusion NG 2) | apparent KD of MS2 coat protein | nM | 18.6
